# Test system: Mus musculus
# ASSAY_DETAILS: Cmax in nude mouse at 1 mg/kg, iv by LC/MS/MS analysis
# Format: ADME, organism-based
# Design: dose 1 mg/kg, route intravenous
# RECORDED_CONDITIONS: in vivo
EXPERIMENTAL_ENDPOINT: Cmax (nM)
Give the value in nM but do not write nM after it.

The compound listed as Cc1cc(OCc2nnc(SC3CCCC3)n2-c2cccnc2)ccc1-c1ccc(S(C)(=O)=O)cc1 has a reported Cmax of 300

---

# ASSAY_DETAILS: Cmax in nude mouse at 10 mg/kg, po by LC/MS/MS analysis
# Format: ADME, organism-based
# Design: dose 10 mg/kg, route oral
# RECORDED_CONDITIONS: in vivo
EXPERIMENTAL_ENDPOINT: Cmax (nM)
Give the value in nM but do not write nM after it.

The molecule listed as Cc1cc(OCc2nnc(SC3CCCC3)n2-c2cccnc2)ccc1-c1ccc(S(C)(=O)=O)cc1 has a reported Cmax of 60
